Origin of values: the supplement of paper PMC10681739

TEST TARGET: RUNX1 (UniProt Q01196)
Sequence (Q01196 whole entry): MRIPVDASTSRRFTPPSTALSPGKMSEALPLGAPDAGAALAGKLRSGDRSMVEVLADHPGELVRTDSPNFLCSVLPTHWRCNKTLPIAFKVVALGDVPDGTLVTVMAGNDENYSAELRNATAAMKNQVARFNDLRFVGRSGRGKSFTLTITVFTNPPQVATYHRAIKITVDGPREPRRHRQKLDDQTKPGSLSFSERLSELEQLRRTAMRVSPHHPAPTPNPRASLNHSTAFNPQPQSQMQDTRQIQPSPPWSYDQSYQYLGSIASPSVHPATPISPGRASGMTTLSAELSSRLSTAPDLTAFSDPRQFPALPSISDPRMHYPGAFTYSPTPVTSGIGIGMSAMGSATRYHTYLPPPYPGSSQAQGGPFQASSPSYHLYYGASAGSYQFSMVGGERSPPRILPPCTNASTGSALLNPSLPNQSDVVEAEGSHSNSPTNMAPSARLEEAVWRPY
EXPERIMENT SUMMARY: RUNX1 binding intensity (PBM fluorescence), RUNX1 alone (arbitrary fluorescence units); higher = stronger binding;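 also: Full-length recombinant human RUNX1 bound to double-stranded 36-bp genomic probes on a high-density microarray, scored as Alexa488 fluorescence per spot via anti-RUNX1 antibody, median of four replicate spots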
ASSAY CONDITIONS: RUNX1 concentration 2 nM; ETS1 concentration 0 nM

| MONOMER SEQUENCE | RUNX1 binding intensity |
| --- | --- |
| TCAGGGGAGCGAGCAGGAAGTGGTAAGATTTGATAG | 696 |
| AAACCCTGAGTAATCGGAAGTGGTTAGGAGTGAGAG | 816 |
| CCCGGCCACTTCCGCCTATTGCGGGCGTCGGCTAGG | 745 |
| ACTGAACAAACCGGATGTGGTTCCCACCTGCAATCT | 850 |
| AGGCTCATTTCCTGTTTTCATGTGGTTTAGAGAAAA | 1320 |
| CCCCTATATCACAGGATGCCGCAAACTAGTAACAGG | 827 |
| GGAGCATCCCGGAAGTCGTCACTGCGGCCGCTCCCG | 690 |
| GCTGGGCCATCCTGCCACATGCACCGCATCTCTGGG | 759 |
| TAAGCAGGGAATAGAGGAAGTGGTTTTGTCTCAGGC | 779 |
| CTTCTGAGAGGAGGATGTGGTCAGATACCTACAAAT | 854 |
| AGAACAGCAGGAAATAAATACCCACCTCAGGACTGC | 822 |
| CCCACTCCACTTCCGCCACCGCCGCAGCCGCCGCTG | 1980 |
| AGCGGCCTGGGAGGAGGATGTGGTTACGTGGAGACC | 996 |
| GTGGAAAGGAAATGTGTCATCTGTGGTTTGGTTTTA | 1060 |
| GAGACACTCTGCTTCCTGCGGTGGAAGATTCAGTAT | 873 |
| ACCCACTTCCTGTTAGAGCATCTTTGCAACCACAGG | 933 |
| GAAAAAAATGAGCTTCCTTTAACCACAACTGTATTA | 1350 |
| AGTTGGTTCCTTCCGGTGGGTTTGTGGGTTTGGGGT | 870 |
| ATTTCCATTTCCGGACTCTTCTCCTGCCCGCAGGGC | 1220 |
| CTCACAACTCGCGTCCGGCGGAGACCACAATTCCCG | 863 |
| ATGTCTTCCTGTACAGGAACTGGGTCCCAGCCGCAG | 745 |
| GCGAGACGCGGAAGAGGCTTGCGGTTGACCAAAGAA | 1830 |
| GGCTCGGCAAACATCCGGCTCCGCGGTGGAACGGGA | 785 |
| TTTGCTGCAGAAGGATGTGGTTTATTCAGGTTTGAC | 932 |
| CTCCTTCCTGTGTGTTACTCTTAAAAACCACAGAGG | 1230 |
